- assay explanation: label from the status in PepcDB records
result type: protein production

Example sequences with recorded protein production:
[
  {
    "query sequence": "MDEIKIEKLKKLDKKALNELIDVYMSGYEGLEEYGGEGRDYARNYIKWCWKKASDGFFVAKVGDKIVGFIVCDKDWFSKYEGRIVGAIHEFVVDKKFQGKGIGRKLLITCLDFLGKYNDTIELWVGEKNYGAMNLYEKFGFKKVGKSGIWVRMIKRQNL",
    "protein production": "not failed"
  },
  {
    "query sequence": "MPAKVLINGYGSIGKRVADAVSMQDDMEVIGVTKTKPDFEARLAVEKGYKLFVAIPDNERVKLFEDAGIPVEGTILDIIEDADIVVDGAPKKIGKQNLENIYKPHKVKAILQGGEKAKDVEDNFNALWSYNRCYGKDYVRVVSCNTTGLCRILYAINSIADIKKARIVLVRRAADPNDDKTGPVNAITPNPVTVPSHHGPDVVSVVPEFEGKILTSAVIVPTTLMHMHTLMVEVDGDVSRDDILEAIKKTPRIITVRAEDGFSSTAKIIEYGRDLGRLRYDINELVVWEESINVLENEIFLMQAVHQESIVIPENIDCIRAMLQMEEDNFKSIEKTNKAMGIQ",
    "protein production": "not failed"
  },
  {
    "query sequence": "MPDNEVDLLFAQLSPEDLIEWSDYLPESFTDRALAQMGERQRQRFELYDQYSENEIGRYTDHQMLVLSDKATVAQAQRFFRRIELDCNDNLFIVDEADKYLGTVRRYDIFKHEPHEPLISLLSEDSRALTANTTLLDAAEAIEHSREIELPVIDDAGELIGRVTLRAATALVREHYEAQLMATAGMDESDDLFAPILKGAQRRAVWLGINLLTAFLASATIGLFENVLSQVVALAVLMPIVASMGGIAGSQSLTLMIRGMAMGQISAGNLFSLMKNELGIGLVNGTLWAIVIGLVAGWWFADSIIGIVIGCAILINMAVAALAGVFVPMIL",
    "protein production": "failed"
  },
  {
    "query sequence": "MAVECIKDKVTRYPERASYSDEDLVAMLDRNFTCTVSFIDGGIPYAIPMMLASEGKTIYLHGSMKSRIYGILKTGQLIAISLLEINGIVLAKEIKNNSINYVSALIFGRPYEIDDTEKKIEVFRLLTEKLVKGRRDNSIKPSYEDLNGVFVFAVKPETFSMKARTGPPHDTSTDDIWSGVLPIQHTISEAGENAPEYVKSLYGKRIFI",
    "protein production": "not failed"
  },
  {
    "query sequence": "MDETGNLTVSSATCHDTIDDFRNQVYSTLYSMISVVGFFGNGFVLYVLIKTYHKKSAFQVYMINLAVADLLCVCTLPLRVVYYVHKGIWLFGDFLCRLSTYALYVNLYCSIFFMTAMSFFRCIAIVFPVQNINLVTQKKARFVCVGIWIFVILTSSPFLMAKPQKDEKNNTKCFEPPQDNQTKNHVLVLHYVSLFVGFIIPFVIIIVCYTMIILTLLKKSMKKNLSSHKKAIGMIMVVTAAFLVSFMPYHIQRTIHLHFLHNETKPCDSVLRMQKSVVITLSLAASNCCFDPLLYFFSGGNFRKRLSTFRKHSLSSVTYVPRKKASLPEKGEEICKV",
    "protein production": "failed"
  },
  {
    "query sequence": "MKFLTVSDDMNFLRQVNTLVAGKGDMDSVIIGEGDAKGLGSKVLYRAKKGTPFDAVSEGILKIAGNYDYIAIGSTEVGREIAGYLSFKTGFYTATEIFSLEFNGQKAHTKRFFYGGKTVIEEESDARILTVAPGVIEAKDLGTTPEIRDLEIGQSRIKITKFVSKAGGSVRLEDAKVIVSVGRGIGSKENIAKIEPLAKALNGEIAGSRPVCMDYGWLSEDRQVGLSGKKVSPKVYIALGISGQIQHIAGMRNSKTVIAINKDKNAPIFQECDYGIVGDLFTVVPKILEQLKQ",
    "protein production": "failed"
  }
]

Reported protein production for "MEYVYAALILNEADEEINEDNLTDVLDAAGVDVEESRVKALVAALEDVDIEEAVDQAAAAPVPASGGAAAPAEGDADEADEADEEAEEEAADDGGDDDDDEDDEASGEGLGELFGLEHHHHHH" : what is it?
not failed

Okay, and "MERSEEEIENLWKLQSEVKQRSESVKSIITELEIERGTLKVRALKLKEDSDVLTTWVEMNYLKLTSMDMGRIEEMFEIESEVEGLAGDDAIEDVLRVLEEAAERGELEIGSYLKQVRVLAREQFFLKHLSSFKTQNFHI" ?
failed

Okay, and "MFVELNNLLNTTPDRAEQGKLTLLCDAKTDGSFLVHHFLSFYLKANCKVCFVALIQSFSHYSIVGQKLGVSLTMARERGQLVFLEGLKSAVDVVFQAQKEPHPLQFLREANAGNLKPLFEFVREALKPVDSGEARWTYPVLLVDDLSVLLSLGMGAVAVLDFIHYCRATVCWELKGNMVVLVHDSGDAEDEENDILLNGLSHQSHLILRAEGLATGFCRDVHGQLRILWRRPSQPAVHRDQSFTYQYKIQDKSVSFFCQRNVSCCSVT" ?
not failed

Okay, and "MFCTLAGYRWLNSGSLLRRLSQRAVRRLPTAPLCHLHNGATESAASNGALRIVDEKVAYRRYATVFERTVQYPDGRHVTYDILGQPAVQSASVLVFPFDTQSKTCYVIREYCPGPNRVLYGFPAGMVETKHESLEAAARAELSEEAHLRCAQLIDLTAQAAVWERSFEVPNTASDAENCLRGFFADKYSRNVCKMYLALNPEPDGHPGSMDAEELIEQVGAVRVPQLEAWLWSGQMTMPHMLLAMCALTYLRQRGMLT" ?
failed

Okay, and "MRENSTKPPQPHISEPADVAESRFISVAIPTFRRPDTIRRAIDSVLHQDFSNWELIVSDDEGPDGQTWAMLTDYARADPRIRIVENRRGRGQVENTNNVMLACRGSWIKLLHDDDWLAPKALGTFAQVAQQYPSAAFITCATNRVEDDRVKLRSARPGKKHVTVCSSQQTLKDLYLVRTTRSFGIIPSSLLVNSIVVQNGCLMRTYKSITAGVDQLFFIDLARHGDMVMIEDGLIFYDATNHSSVTASTTFDDVDRETIDLKHLTWSLIEDKHELPDPETIAGALQVARLRSRFRHQPWGSTIRHALQIFHPSVTKAVNQDIFARVQAVLRRRLRRTNW" ?
failed
